target.under.test: monoclonal antibody C-34
assay.info: clone count after phage biopanning on biotinylated C-34
Frequency listing for selected binders.
parameter.measured: Frequency

>>> print(df.to_string())
                                binder  parameter_measured  data_value
0  GRRVWMLNHG [C34 Clone SEQ ID NO:14]           Frequency           2
1   KGFLWRARNW [C34 Clone SEQ ID NO:9]           Frequency           1
2  FSHSYGSAIR [C34 Clone SEQ ID NO:17]           Frequency           1
3   KWNWRNKKYV [C34 Clone SEQ ID NO:2]           Frequency           1
4   WRQREYWDPV [C34 Clone SEQ ID NO:6]           Frequency           1
5  TMWVELYSLK [C34 Clone SEQ ID NO:20]           Frequency           1
6   TQMWRAREYL [C34 Clone SEQ ID NO:5]           Frequency           2

Where these numbers come from: patent US7074888B1
